Molecular target: T1, recombinant E1/E2 heterodimer protein (genotype 1a) (hepatitis C virus genotype 1a, UniProt P26664 192-383; P26664 384-746, limits assumed)
T1 construct: also called E1/E2 in complex; recombinant E1/E2 antigen
T1 sequence (P26664 192-383 limits assumed, chain 1 of 2): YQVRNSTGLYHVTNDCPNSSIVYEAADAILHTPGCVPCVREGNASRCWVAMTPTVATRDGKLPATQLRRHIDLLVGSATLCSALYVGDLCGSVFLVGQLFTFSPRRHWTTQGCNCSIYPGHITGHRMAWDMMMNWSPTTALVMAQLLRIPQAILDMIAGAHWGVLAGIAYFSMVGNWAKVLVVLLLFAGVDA
T1 sequence (P26664 384-746 limits assumed, chain 2 of 2): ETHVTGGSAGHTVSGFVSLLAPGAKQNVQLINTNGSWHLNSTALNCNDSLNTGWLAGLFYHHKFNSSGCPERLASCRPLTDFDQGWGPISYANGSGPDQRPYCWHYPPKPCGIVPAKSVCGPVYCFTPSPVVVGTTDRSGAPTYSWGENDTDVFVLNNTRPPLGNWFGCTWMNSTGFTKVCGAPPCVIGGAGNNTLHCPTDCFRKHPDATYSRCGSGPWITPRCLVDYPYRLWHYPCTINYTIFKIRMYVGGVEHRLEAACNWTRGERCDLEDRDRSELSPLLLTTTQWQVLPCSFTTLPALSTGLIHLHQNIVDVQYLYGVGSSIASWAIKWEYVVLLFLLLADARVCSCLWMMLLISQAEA
Assay: ELISA, E1/E2 heterodimer coated; crude periplasmic Fab
MEASURED METRIC: OD405 nm (OD405 nm)
// units = OD405 nm; emit number, no label

Entry under test: Fab clone 2a-37 (Fab, V domains shown, Human Fab (gamma1 Fd + kappa), crude periplasmic preparation, approx. 0.08 ug Fab/ml) VH: EVQLLESGGGLVQPGRSLRLSCAASGFTFSNSDMHWVRQAPGKGLEWVTVSSRDGYDNYYADSVRGRFTISRDNSKNTLYLQMNTLRAEDTAVYYCAKRRGYAFDIWGQGTMVTVSS VL: AELTQSPSSLSASVGDRVTITCRASQSINTYLNWYQQKPGKAPELLIYGASSLQSGVPSRFSGSGSGTDFTLTITSLQAEDFASYFCQQSDSTPRTFGQGTKVEIK . Its OD405 nm was 0.48

Entry under test: Fab clone 1:10 (Fab, V domains shown, Human Fab (gamma1 Fd + kappa), crude periplasmic preparation, approx. 0.01 ug Fab/ml) VH: EVQLLESGAEVKKPGESLRISCRGSGYSFPNYWVSWVRQMPGKGLEWMGKIDPSDSETNYSPSFQGHVTISADKSLSIAYLQWNSLKASDTAMYYCARHKRGAPTYKDILTGYYVDGMDVWGQGTTVTVSS VL: AELTQSPDSLAMSLGERASINCKSSRSLLYSSNNKNYLAWYQQKSGHPPKLLIYWASTRESGVPDRFNGSGSGTDFTLTISSLQAEDVAVYFCQQYYSSPLTFGGGTKVEIK . Its OD405 nm was 0.12

Entry under test: Fab clone 2a-14 (Fab, V domains shown, Human Fab (gamma1 Fd + kappa), crude periplasmic preparation, approx. 0.72 ug Fab/ml) VH: VQLLEQSGGGVVQPGRSLRLSCAASGFTFSTYAMHWVRQAPGKGLEWVAVISHDGSNKFYADSVKGRFTISRDSSKNTLYLQMNSLRPGDTAVYYCSRWDRRAEYFQDWGQGTLVTVSS VL: AELTQSPAFMSATPGDKVNISCKASQDIDDDMNWYQQKPGEAAIFIIQEATTLVPGIPPRFSGSGYGTDFTLTINNIESEDAAYYFCLQHDNFPLTFGQGTKVEIK . Its OD405 nm was 0.09

Recorded values, source patent US20040208887A1.
